Tested on: B. Cereus ATCC 11778
method-notes: MIC, NCCLS broth microdilution
Assay type: cell-based, Bacillus cereus
assay-conditions: A = B. Cereus ATCC 11778
measurement-label: Minimum Inhibitory Concentration (MIC)

Worked cases, answers included:
molecule | Minimum Inhibitory Concentration (MIC)
Cn1cc(NC(=O)c2cc3ccccc3cn2)cc1C(=O)Nc1cc(C(=O)Nc2ccc3sc(C(=O)NCCN4CCOCC4)cc3c2)n(C)c1 [Id-1] | >32 µg/mL
Cn1cc(NC(=O)c2cc3cc4c(cc3s2)OCO4)cc1C(=O)NCCN1CCSCC1 [Ib-20w] | +++ (+++ = MIC ≦ 4)
CN1CCN(CCCNC(=O)c2cc(NC(=O)c3sc4cc5c(cc4c3Cl)OCO5)cn2C)CC1 [Ib-20r] | +++ (+++ = MIC ≦ 4)
CC(=O)[O-].Cc1cc(NC(=O)c2cc(NC(=O)c3cc(NC(=O)c4cc5ccccc5cn4)cn3C)cn2CCC[N+](C)(C)C)sn1 [Ib-74] | +++ (+++ = MIC ≦ 4)

QUERY: Which Minimum Inhibitory Concentration (MIC) value is on record for Cn1cc(NC(=O)c2sc3cc4c(cc3c2Cl)OCO4)cc1C(=O)NCCN1CCC(F)(F)CC1 [Ib-20q] ?
RESULT: >32 µg/mL

QUERY: Next entry: Cn1cc(NC(=O)c2cc(NC(=O)c3cc(NC(=O)c4cc5cc6c(cc5s4)OCO6)cn3C)cn2C)cc1C(=O)NCCN1CCOCC1 [Ib-20v]
RESULT: +++ (+++ = MIC ≦ 4)

QUERY: Next entry: Cn1cc(NC(=O)c2cc(NC(=O)c3cc(NC(=O)c4cc5ccccc5cn4)cn3C)c[nH]2)cc1C(=O)NCCN1CCOCC1 [Ib-67]
RESULT: +++ (+++ = MIC ≦ 4)

QUERY: Next entry: Cn1cc(NC(=O)c2cc(NC(=O)c3cc(NC(=O)c4sc5cc([N+](=O)[O-])ccc5c4Cl)cn3C)cn2C)cc1C(=O)NCCN1CCOCC1 [Ib-20j]
RESULT: +++ (+++ = MIC ≦ 4)

QUERY: Next entry: Cn1cc(NC(=O)c2cc(NC(=O)c3sc4cc5c(cc4c3Cl)OCO5)cn2C)cc1C(=O)NCCN1CCOCC1 [Ib-20e]
RESULT: +++ (+++ = MIC ≦ 4)

QUERY: Next entry: Cc1ccc2c(Cl)c(C(=O)Nc3cc(C(=O)Nc4cc(C(=O)Nc5cc(C(=O)NCCN6CCOCC6)n(C)c5)n(C)c4)n(C)c3)sc2c1 [Ib-20c]
RESULT: +++ (+++ = MIC ≦ 4)

QUERY: Next entry: Cn1cc(NC(=O)c2cc(NC(=O)c3cc(NC(=O)c4cc5ccccc5cn4)cn3C)cn2CCN2CCOCC2)cc1C(=O)NCCN1CCOCC1 [Ib-57]
RESULT: +++ (+++ = MIC ≦ 4)

* * *

System: B. Cereus ATCC 11778
method-notes: MIC, NCCLS broth microdilution
Format: cell-based, Bacillus cereus
assay-conditions: A = B. Cereus ATCC 11778
measurement-label: Minimum Inhibitory Concentration (MIC)

compound | measurement-label | value-reported
Cn1cc(NC(=O)c2cc(NC(=O)c3cc(NC(=O)c4cc5ccccc5cn4)c[nH]3)cn2C)cc1C(=O)NCCN1CCOCC1 [Ib-50] | Minimum Inhibitory Concentration (MIC) | +++ (+++ = MIC ≦ 4)
Cn1cc(NC(=O)c2cc3ccccc3cn2)cc1C(=O)Nc1cc(C(=O)Nc2cc(C(=O)NCCN3CCCCC3)n(CCN3CCCCC3)c2)n(C)c1 [Ib-68] | Minimum Inhibitory Concentration (MIC) | +++ (+++ = MIC ≦ 4)
Cn1cc(NC(=O)c2cc(NC(=O)c3cc(NC(=O)c4sc5ccccc5c4Cl)cn3C)cn2C)cc1C(=O)NCC[N+]1(C)CCOCC1 [Ib-20b] | Minimum Inhibitory Concentration (MIC) | +++ (+++ = MIC ≦ 4)

* * *

Tested on: B. Cereus ATCC 11778
method-notes: MIC, NCCLS broth microdilution
Format: cell-based, Bacillus cereus
assay-conditions: A = B. Cereus ATCC 11778
measurement-label: Minimum Inhibitory Concentration (MIC)

compound | Minimum Inhibitory Concentration (MIC)
CCN(CC)CCNC(=O)c1cc(NC(=O)c2cc(NC(=O)c3cc(NC(=O)c4sc5cc6c(cc5c4Cl)OCO6)cn3C)cn2C)cn1C [Ib-20h] | +++ (+++ = MIC ≦ 4)
Cn1cc(NC(=O)c2cc3ccccc3cn2)cc1C(=O)Nc1cc(C(=O)Nc2cc(C(=O)NCCN3CCOCC3)n(CCN3CCOCC3)c2)n(C)c1 | >32 µg/mL
Cn1cc(NC(=O)c2sc3cc4c(cc3c2Cl)OCO4)cc1C(=O)NCCN1CCOCC1 [Ib-20f] | +++ (+++ = MIC ≦ 4)
Cn1cc(NC(=O)c2cc3cc4c(cc3s2)OCO4)cc1C(=O)NCCN1CCOCC1 [Ib-20t] | +++ (+++ = MIC ≦ 4)

QUERY: Which Minimum Inhibitory Concentration (MIC) value is on record for Cn1cc(NC(=O)c2sc3cc4c(cc3c2Cl)OCO4)cc1C(=O)NCCN1CCSCC1 [Ib-20p] ?
RESULT: +++ (+++ = MIC ≦ 4)
